tested on: HDQ-P1; conditions: 72 h
A collection of molecules and their measured EC50, CellTiter-Blue viability

| smiles text | units text | EC50, CellTiter-Blue viability |
| --- | --- | --- |
| CO[C@H]1C[C@@H]2CC[C@@H](C)[C@@](O)(O2)C(=O)C(=O)N2CCCC[C@H]2C(=O)O[C@H]([C@H](C)C[C@@H]2CC[C@@H](OCCO)[C@H](OC)C2)CC(=O)[C@H](C)/C=C(\C)[C@@H](O)[C@@H](OC)C(=O)[C@H](C)C[C@H](C)/C=C/C=C/C=C/1C | nM | 0.35 |
| COc1ccc(-c2ccc3c(N4CCOC[C@@H]4C)nc(N4CCOC[C@@H]4C)nc3n2)cc1CO | nM | 23.8 |
| C/C(=C\c1csc(C)n1)[C@@H]1C[C@@H]2O[C@]2(C)CCC[C@H](C)[C@H](O)[C@@H](C)C(=O)C(C)(C)[C@@H](O)CC(=O)O1 | nM | 16.5 |
| CCCCCCCCc1ccc(CCC(N)(CO)CO)cc1 | nM | 5350 |

###

tested on: MFM-223; assay: normalised response (% of control), CellTiter-Glo; higher = more viable cells (100 = DMSO, 0 = benzethonium chloride kill control); conditions: incubation time: 72 h
A collection of compounds and their measured normalised response
property: normalised response (%)

| compound | tested on | units text | measured value |
| --- | --- | --- | --- |
| COc1ccc(-c2ccc3c(N4CCOC[C@@H]4C)nc(N4CCOC[C@@H]4C)nc3n2)cc1CO [AZD8055] (10000 nM) | MFM-223 | % | 26.4 |
| CO[C@H]1C[C@@H]2CC[C@@H](C)[C@@](O)(O2)C(=O)C(=O)N2CCCC[C@H]2C(=O)O[C@H]([C@H](C)C[C@@H]2CC[C@@H](OCCO)[C@H](OC)C2)CC(=O)[C@H](C)/C=C(\C)[C@@H](O)[C@@H](OC)C(=O)[C@H](C)C[C@H](C)/C=C/C=C/C=C/1C [Everolimus] (100 nM) | MFM-223 | % | 61.6 |
| CN(C)C[C@@H]1CCn2cc(c3ccccc32)C2=C(C(=O)NC2=O)c2cn(c3ccccc23)CCO1 [Ruboxistaurin] (10000 nM) | MFM-223 | % | 34.9 |
| Nc1ncnc2c1c(COc1cccc(Cl)c1)nn2C1CCOCC1 (10000 nM) | MFM-223 | % | 96.8 |
| Cc1ccc(NC(=O)c2ccc(CN3CCN(C)CC3)cc2)cc1Nc1nccc(-c2cccnc2)n1 [Imatinib] (10000 nM) | MFM-223 | % | 87.7 |
| CN1CCN(CCOc2cc(OC3CCOCC3)c3c(Nc4c(Cl)ccc5c4OCO5)ncnc3c2)CC1 [Saracatinib] (10000 nM) | MFM-223 | % | 64.9 |

###

test system: CAL-51; experiment: normalised viability (% of control), CellTiter-Blue; higher = more viable cells (about 100 = DMSO control); conditions: 1000 nM; incubation time: 72 h
A collection of compounds and their measured normalised viability

| compound | normalised viability |
| --- | --- |
| CNNCc1ccc(C(=O)NC(C)C)cc1 [Procarbazine] | 100% |
| CCCCCCCCc1ccc(CCC(N)(CO)CO)cc1 [Fingolimod] | 112% |
| CN1CCN(CCOc2cc(OC3CCOCC3)c3c(Nc4c(Cl)ccc5c4OCO5)ncnc3c2)CC1 [Saracatinib] | 60.9% |
| Cn1cncc1[C@@](N)(c1ccc(Cl)cc1)c1ccc2c(c1)c(-c1cccc(Cl)c1)cc(=O)n2C [Tipifarnib] | 59.9% |
| CN(C)C[C@@H]1CCn2cc(c3ccccc32)C2=C(C(=O)NC2=O)c2cn(c3ccccc23)CCO1 [Ruboxistaurin] | 76.8% |

###

tested on: MDA-MB-453; details: 72 h

| compound | units text | EC50, CellTiter-Blue viability |
| --- | --- | --- |
| Cc1ccc(NC(=O)c2ccc(CN3CCN(C)CC3)cc2)cc1Nc1nccc(-c2cccnc2)n1 | nM | 4540 |
| CCCCCCCCc1ccc(CCC(N)(CO)CO)cc1 | nM | 5400 |
| Cn1cncc1[C@@](N)(c1ccc(Cl)cc1)c1ccc2c(c1)c(-c1cccc(Cl)c1)cc(=O)n2C | nM | 1430 |
| Cn1c(=O)n(-c2ccc(C(C)(C)C#N)cc2)c2c3cc(-c4cnc5ccccc5c4)ccc3ncc21 | nM | 8.31 |
| CO[C@H]1C[C@@H]2CC[C@@H](C)[C@@](O)(O2)C(=O)C(=O)N2CCCC[C@H]2C(=O)O[C@H]([C@H](C)C[C@@H]2CC[C@@H](OCCO)[C@H](OC)C2)CC(=O)[C@H](C)/C=C(\C)[C@@H](O)[C@@H](OC)C(=O)[C@H](C)C[C@H](C)/C=C/C=C/C=C/1C | nM | 0.4 |
| CN(C)C[C@@H]1CCn2cc(c3ccccc32)C2=C(C(=O)NC2=O)c2cn(c3ccccc23)CCO1 | nM | 4240 |
| O=C1NC(=O)[C@@H](c2cn3c4c(cccc24)CCC3)[C@@H]1c1c[nH]c2ccccc12 [Tivantinib] | nM | 169 |

###

tested on: CAL-51; experiment: normalised response (% of control), CellTox Green; higher = less cell death (100 = DMSO, 0 = benzethonium chloride kill control); settings: incubation time: 72 h
A collection of compounds and their measured normalised response

| compound | normalised response, % |
| --- | --- |
| CN(C)CCN1C(=O)c2cccc3cc(N)cc(c23)C1=O [Amonafide] (10000 nM) | 23.1 |
| Cc1ccc(NC(=O)c2ccc(CN3CCN(C)CC3)cc2)cc1Nc1nccc(-c2cccnc2)n1 [Imatinib] (1000 nM) | 103 |
| Nc1ncnc2c1c(COc1cccc(Cl)c1)nn2C1CCOCC1 (1000 nM) | 118 |
| COc1ccc(-c2ccc3c(N4CCOC[C@@H]4C)nc(N4CCOC[C@@H]4C)nc3n2)cc1CO [AZD8055] (1000 nM) | 80.1 |
| CN1CCN(CCOc2cc(OC3CCOCC3)c3c(Nc4c(Cl)ccc5c4OCO5)ncnc3c2)CC1 [Saracatinib] (100 nM) | 90.7 |
| Cn1c(=O)n(-c2ccc(C(C)(C)C#N)cc2)c2c3cc(-c4cnc5ccccc5c4)ccc3ncc21 [Dactolisib] (100 nM) | 104 |
| Cc1ccc(NC(=O)c2ccc(CN3CCN(C)CC3)cc2)cc1Nc1nccc(-c2cccnc2)n1 [Imatinib] (100 nM) | 106 |
| C[C@]12CC[C@H](O)CC1=CC[C@@H]1[C@@H]2CC[C@]2(C)C(c3cccnc3)=CC[C@@H]12 [Abiraterone] (500 nM) | 101 |
| Cn1c(=O)n(-c2ccc(C(C)(C)C#N)cc2)c2c3cc(-c4cnc5ccccc5c4)ccc3ncc21 [Dactolisib] (1000 nM) | 81.3 |
| c1ccc([C@H]2CN3CCSC3=N2)cc1 [Levamisole] (1000 nM) | 103 |
| O=C1NC(=O)[C@@H](c2cn3c4c(cccc24)CCC3)[C@@H]1c1c[nH]c2ccccc12 [Tivantinib] (10 nM) | 102 |
| C[C@]12CC[C@H](O)CC1=CC[C@@H]1[C@@H]2CC[C@]2(C)C(c3cccnc3)=CC[C@@H]12 [Abiraterone] (5000 nM) | 96.6 |
| COc1ccc(-c2ccc3c(N4CCOC[C@@H]4C)nc(N4CCOC[C@@H]4C)nc3n2)cc1CO [AZD8055] (10000 nM) | 76.6 |
| CCCCCCCCc1ccc(CCC(N)(CO)CO)cc1 [Fingolimod] (10000 nM) | 47.5 |

###

test system: MCF-10A; assay: normalised response (% of control), CellTiter-Glo; higher = more viable cells (100 = DMSO, 0 = benzethonium chloride kill control); conditions: incubation time: 72 h

| molecule | tested on | normalised response [%] |
| --- | --- | --- |
| CC[C@]1(O)C[C@H]2CN(CCc3c([nH]c4ccccc34)[C@@](C(=O)OC)(c3cc4c(cc3OC)N(C=O)[C@H]3[C@@](O)(C(=O)OC)[C@H](OC(C)=O)[C@]5(CC)C=CCN6CC[C@]43[C@@H]65)C2)C1 [Vincristine] (10 nM) | MCF-10A | 60.5 |
| Nc1ncnc2c1c(COc1cccc(Cl)c1)nn2C1CCOCC1 (100 nM) | MCF-10A | 110 |
| C/C(=C\c1csc(C)n1)[C@@H]1C[C@@H]2O[C@]2(C)CCC[C@H](C)[C@H](O)[C@@H](C)C(=O)C(C)(C)[C@@H](O)CC(=O)O1 [Patupilone] (10 nM) | MCF-10A | 89.1 |

###

tested on: HCC1143; experiment: normalised response (% of control), CellTiter-Glo; higher = more viable cells (100 = DMSO, 0 = benzethonium chloride kill control); settings: incubation time: 72 h
Param threshold (70%) applies to normalised response; output condition met when value >= threshold, condition not met when value < threshold.

| compound | class |
| --- | --- |
| Cn1cncc1[C@@](N)(c1ccc(Cl)cc1)c1ccc2c(c1)c(-c1cccc(Cl)c1)cc(=O)n2C [Tipifarnib] (10000 nM) | condition not met |
| Cc1ccc(NC(=O)c2ccc(CN3CCN(C)CC3)cc2)cc1Nc1nccc(-c2cccnc2)n1 [Imatinib] (10000 nM) | condition met |
| CC(C)c1c(C(=O)Nc2ccccc2)c(-c2ccccc2)c(-c2ccc(F)cc2)n1CC[C@@H](O)C[C@@H](O)CC(=O)O [Atorvastatin] (10000 nM) | condition not met |
| Nc1nc(OCc2cc(Br)cs2)c2[nH]cnc2n1 [Lomeguatrib] (10000 nM) | condition met |
| CC(C)(C#N)c1cc(Cn2cncn2)cc(C(C)(C)C#N)c1 [Anastrozole] (10000 nM) | condition met |
| CN1CCN(CCOc2cc(OC3CCOCC3)c3c(Nc4c(Cl)ccc5c4OCO5)ncnc3c2)CC1 [Saracatinib] (10000 nM) | condition not met |
| CC[C@]1(O)C[C@H]2CN(CCc3c([nH]c4ccccc34)[C@@](C(=O)OC)(c3cc4c(cc3OC)N(C=O)[C@H]3[C@@](O)(C(=O)OC)[C@H](OC(C)=O)[C@]5(CC)C=CCN6CC[C@]43[C@@H]65)C2)C1 [Vincristine] (1000 nM) | condition not met |
| CN(C)C[C@@H]1CCn2cc(c3ccccc32)C2=C(C(=O)NC2=O)c2cn(c3ccccc23)CCO1 [Ruboxistaurin] (10000 nM) | condition not met |
| CCCCCCCCc1ccc(CCC(N)(CO)CO)cc1 [Fingolimod] (10000 nM) | condition met |
| C/C(=C\c1csc(C)n1)[C@@H]1C[C@@H]2O[C@]2(C)CCC[C@H](C)[C@H](O)[C@@H](C)C(=O)C(C)(C)[C@@H](O)CC(=O)O1 [Patupilone] (1000 nM) | condition not met |
| NS(=O)(=O)OC[C@@H]1C[C@@H](n2ccc3c(N[C@H]4CCc5ccccc54)ncnc32)C[C@@H]1O [Pevonedistat] (10000 nM) | condition not met |
